Values compiled from the Immune Epitope Database (IEDB).

target: HLA-B*46:01; assay: IEDB peptide-MHC binding, purified MHC/direct/fluorescence; filed as Kd, often an IC50 or EC50 that approximates it; bounds were set here for any values at or beyond the usual limits of such assays; conditions: source organism: Yellow fever virus 17D
parameter: Kd

INSERT INTO measurements (seq, result) VALUES
  ('VRGGMVAPL', '≥ 20 µM');

###

target: HLA-B*44:03; test: IEDB peptide-MHC binding, purified MHC/competitive/radioactivity; filed as Kd, often an IC50 or EC50 that approximates it; bounds were set here for any values at or beyond the usual limits of such assays; details: source organism: Dengue virus 2 Jamaica/1409/1983
parameter: Kd (nM)

INSERT INTO results (seq, measurednumber) VALUES
  ('LEENVEVEIW', 367),
  ('EEIAVQNWLA', 431),
  ('EEQTLTILI', 146),
  ('EEYTDYMPSM', 116);

###

biological target: HLA-A*02:50; experiment: IEDB peptide-MHC binding, purified MHC/competitive/fluorescence; filed as Kd, often an IC50 or EC50 that approximates it; bounds were set here for any values at or beyond the usual limits of such assays; settings: source organism: Coxiella burnetii RSA 493
parameter: Kd

INSERT INTO results (seq, parameter, result) VALUES
  ('YMHGSIHEV', 'Kd', '≤ 0.1 nM');

###

target: HLA-B*57:01; assay: IEDB peptide-MHC binding, purified MHC/direct/fluorescence; filed as Kd, often an IC50 or EC50 that approximates it; bounds were set here for any values at or beyond the usual limits of such assays; conditions: source organism: Vibrio cholerae
parameter: Kd (nM)

INSERT INTO measurements (seq, measurednumber) VALUES
  ('KAYSEAETF', 173);

###

molecular target: HLA-A*01:01; assay: IEDB peptide-MHC binding, purified MHC/competitive/radioactivity; filed as Kd, often an IC50 or EC50 that approximates it; bounds were set here for any values at or beyond the usual limits of such assays; conditions: source organism: Dengue virus 2 Jamaica/1409/1983
pKd: −log10 of the molar value.
Overview of recorded pKd for various sequences
parameter: pKd

INSERT INTO measurements (seq, qualifyingsign, measurednumber) VALUES
  ('ETSWHYDQDH', '≤', 4.15),
  ('MSYSMCTGKF', '=', 4.74);

###

biological target: HLA-B*53:01; assay: IEDB peptide-MHC binding, purified MHC/competitive/radioactivity; filed as Kd, often an IC50 or EC50 that approximates it; bounds were set here for any values at or beyond the usual limits of such assays; conditions: source organism: Vaccinia virus WR
# yes = Kd below 2000 nM (exclusive); no = Kd at/above 2000 nM

INSERT INTO results (seq, classlabel) VALUES
  ('MVIENGILKK', 'no'),
  ('YIIRVTTEL', 'no'),
  ('APIKEFKAKI', 'no'),
  ('VILFIMFMLI', 'yes'),
  ('VPSVNEYHML', 'no'),
  ('LPHLCLDYKV', 'yes'),
  ('IPFIAYFVLM', 'yes');

###

molecular target: HLA-B*15:01; assay: IEDB peptide-MHC binding, purified MHC/direct/fluorescence; filed as Kd, often an IC50 or EC50 that approximates it; bounds were set here for any values at or beyond the usual limits of such assays; details: source organism: Bacillus anthracis
parameter: Kd (nM)

INSERT INTO results (seq, measurednumber) VALUES
  ('KLYVNGKAY', 298);

###

Reported pKd values follow for various sequences
target: HLA-B*58:01; experiment: IEDB peptide-MHC binding, purified MHC/competitive/radioactivity; filed as Kd, often an IC50 or EC50 that approximates it; bounds were set here for any values at or beyond the usual limits of such assays; conditions: source organism: Dengue virus 1 Brazil/97-11/1997
pKd: −log10 of the molar value.
parameter: pKd

INSERT INTO measurements (seq, measurednumber) VALUES
  ('VTAKWLWGF', 7.23),
  ('LSSLLKNDVP', 6.09);

###

target: HLA-B*45:06; experiment: IEDB peptide-MHC binding, purified MHC/competitive/fluorescence; filed as Kd, often an IC50 or EC50 that approximates it; bounds were set here for any values at or beyond the usual limits of such assays; conditions: source organism: Mycobacterium tuberculosis F11
pKd: −log10 of the molar value.
parameter: pKd

INSERT INTO results (seq, result) VALUES
  ('FVAATGRPL', '≤ 5.30');

###

target: HLA-C*04:01; test: IEDB peptide-MHC binding, purified MHC/competitive/fluorescence; filed as Kd, often an IC50 or EC50 that approximates it; bounds were set here for any values at or beyond the usual limits of such assays; conditions: source organism: Burkholderia pseudomallei S13
parameter: Kd

INSERT INTO results (seq, systemname, result) VALUES
  ('GFYLSGHLF', 'HLA-C*04:01', '≥ 5 µM');

###

biological target: HLA-B*57:01; experiment: IEDB peptide-MHC binding, purified MHC/direct/fluorescence; filed as Kd, often an IC50 or EC50 that approximates it; bounds were set here for any values at or beyond the usual limits of such assays; settings: source organism: Sudan ebolavirus - Maleo (1979)
parameter: Kd

INSERT INTO measurements (seq, systemname, parameter, result) VALUES
  ('MHYKLDEVL', 'HLA-B*57:01', 'Kd', '≥ 20 µM');

###

biological target: HLA-A*24:03; assay: IEDB peptide-MHC binding, purified MHC/direct/fluorescence; filed as Kd, often an IC50 or EC50 that approximates it; bounds were set here for any values at or beyond the usual limits of such assays; settings: source organism: Corynebacterium glutamicum
pKd: −log10 of the molar value.
parameter: pKd

INSERT INTO measurements (seq, measurednumber) VALUES
  ('ATQPVHWFL', 8.35);

###

molecular target: HLA-A*02:01; assay: IEDB peptide-MHC binding, purified MHC/competitive/fluorescence; bounds were set here for any values at or beyond the usual limits of such assays; conditions: source organism: Variola virus
pIC50: −log10 of the molar value.
parameter: pIC50

INSERT INTO results (seq, measurednumber) VALUES
  ('IIIAVARKH', 4.29),
  ('FSAWISHRP', 4.42),
  ('TLEDDRERL', 4.52),
  ('KLFSYGTLI', 6.21);

###

molecular target: HLA-B*44:02; experiment: IEDB peptide-MHC binding, purified MHC/direct/fluorescence; filed as Kd, often an IC50 or EC50 that approximates it; bounds were set here for any values at or beyond the usual limits of such assays; settings: source organism: Salmonella enterica subsp. enterica serovar Typhimurium
parameter: Kd

INSERT INTO assay_data (seq, result) VALUES
  ('NSDYMMWVG', '≥ 20 µM');

###

target: HLA-B*58:01; experiment: IEDB peptide-MHC binding, purified MHC/direct/fluorescence; filed as Kd, often an IC50 or EC50 that approximates it; bounds were set here for any values at or beyond the usual limits of such assays; details: source organism: Influenza A virus (A/duck/Mongolia/47/2001(H7N1))
pKd: −log10 of the molar value.
parameter: pKd

INSERT INTO assay_data (seq, result) VALUES
  ('FLKDVMESM', '≤ 4.70');

###

target: HLA-B*57:01; test: IEDB peptide-MHC binding, purified MHC/competitive/fluorescence; filed as Kd, often an IC50 or EC50 that approximates it; bounds were set here for any values at or beyond the usual limits of such assays; conditions: source organism: Giardia lamblia ATCC 50803
pKd: −log10 of the molar value.
parameter: pKd

INSERT INTO assay_data (seq, parameter, result) VALUES
  ('ALGGSCHTT', 'pKd', '≤ 4.70');

###

target: HLA-A*01:01; experiment: IEDB peptide-MHC binding, purified MHC/direct/fluorescence; filed as Kd, often an IC50 or EC50 that approximates it; bounds were set here for any values at or beyond the usual limits of such assays; details: source organism: Salmonella enterica
parameter: Kd

INSERT INTO assay_data (seq, parameter, result) VALUES
  ('EIIFYHPTF', 'Kd', '≥ 20 µM');

###

target: HLA-A*26:01; experiment: IEDB peptide-MHC binding, purified MHC/direct/fluorescence; filed as Kd, often an IC50 or EC50 that approximates it; bounds were set here for any values at or beyond the usual limits of such assays; settings: source organism: Mycobacterium tuberculosis F11
pKd: −log10 of the molar value.
parameter: pKd

INSERT INTO measurements (seq, result) VALUES
  ('MPRLSRNAA', '≤ 4.70');

###

target: HLA-A*24:03; experiment: IEDB peptide-MHC binding, purified MHC/competitive/fluorescence; filed as Kd, often an IC50 or EC50 that approximates it; bounds were set here for any values at or beyond the usual limits of such assays; conditions: source organism: Salmonella enterica subsp. enterica serovar Typhimurium str. LT2
parameter: Kd

INSERT INTO results (seq, parameter, result) VALUES
  ('ILNSDDEQA', 'Kd', '≥ 20 µM');
